- System: Capan-1
- assay-explanation: cells
- Parameters: Viability of PDAC cell lines, ATPlite luminescence, 11-dose single-agent curve fit
- particulars: 72 h; read-out: EC50

mol-smiles	EC50 (µM)
O=C(Nc1cnn2ccc(N3CCC[C@@H]3c3cc(F)ccc3F)nc12)N1CC[C@H](O)C1	3.88

* * *

- System: PDO UME008
- assay-explanation: PDO viability assay (CellTiter-Glo, 72 h)
- Assay type: cell-based, human
- particulars: Homo sapiens, SET-2, PDO UME008 (PDO set 2); Experiment GEM+ATRi_dose1 (ATRi = Elimusertib); single replicates; read-out: EC50
pEC50: −log10 of the molar value.

mol-smiles	target-or-test-system	pEC50
Nc1ccn([C@@H]2O[C@H](CO)[C@@H](O)C2(F)F)c(=O)n1	PDO UME008	8.35
